The measured values listed here are drawn from paper PMC8409973.

Structures can show the parent of a compound that is named as a salt.
I'd be grateful if you could share measured melting point for these entries.

// solved cases for melting point follow
Compound	Endpoint Name	Observed
COc1ccc(-n2cc(COc3nc4ccc(C5=NCCCN5)cc4s3)nn2)cc1.CS(=O)(=O)O [12c]	melting point	259 to 264 °C
N=C(N)c1ccc2nc(-c3ccc(OCc4cn(Cc5ccccc5)nn4)cc3)sc2c1 (as salt: methanesulfonate) [10d]	melting point	253 to 257 °C
COc1ccc(-n2cc(-c3nc4ccc(C(=N)N)cc4s3)nn2)cc1 (as salt: methanesulfonate) [13c]	melting point	> 300 °C
CS(=O)(=O)O.c1ccc(Cn2cc(-c3nc4ccc(C5=NCCCN5)cc4s3)nn2)cc1 [15d]	melting point	170 to 174 °C
COc1ccc(-n2cc(COc3ccc(-c4nc5ccc(C(=N)N)cc5s4)cc3)nn2)cc1 (as salt: methanesulfonate) [10c]	melting point	265 to 270 °C

List reported melting point for each of these compounds:
1. CS(=O)(=O)O.Clc1ccc(-n2cc(-c3nc4ccc(C5=NCCCN5)cc4s3)nn2)cc1 [15b]
2. N=C(N)c1ccc2nc(-c3cn(-c4ccc(Cl)cc4)nn3)sc2c1 (as salt: methanesulfonate) [13b]
3. CS(=O)(=O)O.c1ccc(Cn2cc(-c3nc4ccc(C5=NCCN5)cc4s3)nn2)cc1 [14d]

A)
1: 288 to 293 °C; 2: > 300 °C; 3: 236 to 240 °C

---

# System: HeLa (cervical carcinoma)
# Experiment Description: Proliferation assay (MTT, 72 h) on HeLa
# Assay type: cell-based
# Condition Notes: Homo sapiens
Endpoint Name: IC50
Please provide the amount together with its unit, number first.

Compound	Observed
COc1ccc(-n2cc(COc3ccc(-c4nc5ccc(C(=N)N)cc5s4)cc3)nn2)cc1 [10c]	2870 nM
O=c1[nH]cc(F)c(=O)[nH]1 [5-FU, 5-Fluorouracil, reference compound]	47500 nM
COc1ccc(-n2cc(-c3nc4ccc(C5=NCCCN5)cc4s3)nn2)cc1.CS(=O)(=O)O [15c]	4300 nM
COc1ccc(-n2cc(-c3nc4ccc(C5=NCCN5)cc4s3)nn2)cc1.CS(=O)(=O)O [14c]	380 nM
CS(=O)(=O)O.c1ccc(-n2cc(COc3nc4ccc(C5=NCCCN5)cc4s3)nn2)cc1 [12a]	2950 nM
N=C(N)c1ccc2nc(-c3ccc(OCc4cn(Cc5ccccc5)nn4)cc3)sc2c1 [10d]	1770 nM

Below: the item to evaluate.
Q) Param item = CS(=O)(=O)O.c1ccc(Cn2cc(-c3nc4ccc(C5=NCCCN5)cc4s3)nn2)cc1 [15d] ; retrieve measured IC50.
A) 31000 nM

---

# Tested on: L6 cells (a rat myoblast line)
# Experiment Description: L6 cell proliferation (cytotoxicity, resazurin)
# Assay type: cell-based
# Condition Notes: SI = [IC50 L6 cells]/[IC50 T. brucei]
I'd be grateful if you could share measured SI IC50 (L6/Tb) for these entries.
Answers are plain numbers.

// solved cases for SI IC50 (L6/Tb) follow
Compound	Measured Target	Observed
N=C(N)c1ccc2nc(-c3cn(-c4ccc(Cl)cc4)nn3)sc2c1 [13b]	L6 cells (a rat myoblast line)	4.0
CS(=O)(=O)O.c1ccc(Cn2cc(-c3nc4ccc(C5=NCCN5)cc4s3)nn2)cc1 [14d]	L6 cells (a rat myoblast line)	1.8
N=C(N)c1ccc2nc(-c3cn(-c4ccccc4)nn3)sc2c1 [13a]	L6 cells (a rat myoblast line)	3.9

Below: the item to evaluate.
Q) # value lookup — system L6 cells (a rat myoblast line), readout SI IC50 (L6/Tb), item COc1ccc(-n2cc(COc3nc4ccc(C5=NCCCN5)cc4s3)nn2)cc1.CS(=O)(=O)O [12c]
A) 3.2

---

# Test system: calf thymus ctDNA
# Experiment Description: Fluorimetric titration with ctDNA
# Type: binding
# Condition Notes: fluorescence titration with ctDNA, Scatchard, fixed n = 0.6, pH 7.0, sodium cacodylate I = 0.05 mol dm−3
Endpoint Name: LogKs
One number for each entry.

Compound	Observed
CS(=O)(=O)O.c1ccc(-n2cc(COc3nc4ccc(C5=NCCN5)cc4s3)nn2)cc1 [11a]	6.8

List reported LogKs for each of these compounds:
1. CS(=O)(=O)O.Clc1ccc(-n2cc(-c3nc4ccc(C5=NCCN5)cc4s3)nn2)cc1 [14b]
2. CS(=O)(=O)O.Clc1ccc(-n2cc(-c3nc4ccc(C5=NCCCN5)cc4s3)nn2)cc1 [15b]

A)
1: 5.0; 2: 5.4
